Tested on: A. polyphaga (ATCC-30461) trophozoites
assay: In vitro anti-Acanthamoeba activity, A. polyphaga trophozoite viability
Assay type: cell-based
condition: Acanthamoeba polyphaga, ATCC30461, 48 h, read-out: A. polyphaga (IC50 ±SD, μM), trophozoites, 0–400 μM, 25°C, 48 h; mean±SD of 3 independent experiments
property: IC50

Some solved cases for reference:
CCCCCCCCCCCCCCCCOP(=O)([O-])OCC[N+](C)(C)C [Miltefosine, miltefosine, reference compound] :: 227 µM
CC[C@H]1OC(=O)[C@H](C)[C@@H](O[C@H]2C[C@@](C)(OC)[C@@H](O)[C@H](C)O2)[C@H](C)[C@@H](O[C@@H]2O[C@H](C)C[C@H](N(C)C)[C@H]2O)[C@](C)(O)C[C@@H](C)CN(C)[C@H](C)[C@@H](O)[C@]1(C)O [Azithromycin, Azithromycin dihydrate, reference compound] :: 4.12 µM
C=C1C(=O)O[C@@H]2/C=C(\C)CC/C=C(\C)CC[C@@H]12 [Costunolide, costunolide] :: < 50 µM
O=c1c(O)c(-c2ccc(O)c(O)c2)oc2cc(O)cc(O)c12 :: 321 µM

Ask: Hello, please tell me recorded IC50 for this one: C=C1CC/C=C(\C)CC[C@@H]2[C@@H]1CC2(C)C [(−)-trans-Caryophyllene, (−)-trans-caryophyllene]
Result: 44.8 µM

Ask: Report IC50 for O=c1c(-c2ccc(O)cc2)coc2cc(O)cc(O)c12
Result: > 370 µM

Ask: Name the recorded IC50 of the molecule listed here: O=c1cc(-c2ccc(O)cc2)oc2cc(O)cc(O)c12
Result: < 50 µM

Ask: Report IC50 for O=c1c(O)c(-c2ccc(O)cc2)oc2cc(O)cc(O)c12
Result: < 50 µM

Ask: Fill in IC50 for record Oc1cc(O)c2c(c1)O[C@H](c1ccc(O)c(O)c1)[C@H](O)C2 [(−)-Epicatechin, (−)-epicatechin]
Result: < 50 µM

* * *

Tested on: Naegleria fowleri trophozoites (Carter NF69 strain, ATCC 30215)
assay: In vitro anti-N. fowleri activity, trophozoite viability
Assay type: cell-based
condition: Naegleria fowleri, ATCC30215, 48 h, read-out: N. fowleri (IC50 ±SD, μM)
property: IC50 (µM)
Numeric answer only, unit µM assumed.

Ask: Give IC50 for COc1ccc2c(c[n+](C)c3c4cc5c(cc4ccc23)OCO5)c1OC [Chelerythrine, chelerythrine chloride]
Result: 11.8

* * *

Test system: A. castellanii (ATCC-30868) trophozoites
assay: In vitro anti-Acanthamoeba activity, A. castellanii trophozoite viability
Format: cell-based
condition: ratio CC50 C6 glial cells / IC50 A. castellanii
property: SI, sensitivity index (CC50 C6 glial cells / IC50 A. castellanii)
Give only the figure.

Sample records with SI, sensitivity index (CC50 C6 glial cells / IC50 A. castellanii):
Oc1cc(O)c2c(c1)O[C@H](c1ccc(O)c(O)c1)[C@H](O)C2 [(−)-Epicatechin, (−)-epicatechin] :: 9.55
O=c1c(O)c(-c2ccc(O)cc2)oc2cc(O)cc(O)c12 :: 15.43
C=C1C(=O)O[C@@H]2/C=C(\C)CC/C=C(\C)CC[C@@H]12 [Costunolide, costunolide] :: 5.97
Oc1ccc(/C=C/c2cc(O)cc(O)c2)cc1 :: 5.52
C=C1CC/C=C(\C)CC[C@@H]2[C@@H]1CC2(C)C [(−)-trans-Caryophyllene, (−)-trans-caryophyllene] :: 3.39

Ask: Consider the compound O=c1cc(-c2ccc(O)cc2)oc2cc(O)cc(O)c12 and give its recorded SI, sensitivity index (CC50 C6 glial cells / IC50 A. castellanii).
Result: 5.60

Ask: Give SI, sensitivity index (CC50 C6 glial cells / IC50 A. castellanii) for the following compound: CC[C@H]1OC(=O)[C@H](C)[C@@H](O[C@H]2C[C@@](C)(OC)[C@@H](O)[C@H](C)O2)[C@H](C)[C@@H](O[C@@H]2O[C@H](C)C[C@H](N(C)C)[C@H]2O)[C@](C)(O)C[C@@H](C)CN(C)[C@H](C)[C@@H](O)[C@]1(C)O [Azithromycin, Azithromycin dihydrate, reference compound]
Result: 7.12

Ask: Supply recorded SI, sensitivity index (CC50 C6 glial cells / IC50 A. castellanii) for Oc1cc(O)c2c(c1)O[C@H](c1cc(O)c(O)c(O)c1)[C@H](O)C2 [(−)-Epigallocatechin, (−)-epigallocatechin] here.
Result: 8.68

* * *

assay: Cytotoxicity against C6 glial cells
Assay type: cell-based, rat
condition: rat, C6 glial cells
property: log10 CC50 (log10 of the value in µM)
log10 CC50, µM

Please review the entries below; each comes with its answer.
C=C1CC/C=C(\C)CC[C@@H]2[C@@H]1CC2(C)C [(−)-trans-Caryophyllene, (−)-trans-caryophyllene] :: 2.34
COc1ccc2cc3[n+](cc2c1OC)CCc1cc2c(cc1-3)OCO2 [Berberine, berberine] :: 2.20
Oc1cc(O)c2c(c1)O[C@H](c1ccc(O)c(O)c1)[C@H](O)C2 [(−)-Epicatechin, (−)-epicatechin] :: 2.50
CC[C@H]1OC(=O)[C@H](C)[C@@H](O[C@H]2C[C@@](C)(OC)[C@@H](O)[C@H](C)O2)[C@H](C)[C@@H](O[C@@H]2O[C@H](C)C[C@H](N(C)C)[C@H]2O)[C@](C)(O)C[C@@H](C)CN(C)[C@H](C)[C@@H](O)[C@]1(C)O [Azithromycin, Azithromycin dihydrate, reference compound] :: 1.94
COc1ccc2c(c[n+](C)c3c4cc5c(cc4ccc23)OCO5)c1OC [Chelerythrine, chelerythrine chloride] :: 1.21

// switching to the query compound
Ask: # return recorded log10 CC50 for entry C=C1C(=O)O[C@@H]2/C=C(\C)CC/C=C(\C)CC[C@@H]12 [Costunolide, costunolide]
Result: 2.28

* * *

Test system: Naegleria fowleri trophozoites (Carter NF69 strain, ATCC 30215)
assay: In vitro anti-N. fowleri activity, trophozoite viability
Type: cell-based
condition: Naegleria fowleri, ATCC30215, 48 h, read-out: N. fowleri (IC50 ±SD, μM), trophozoites, 0–400 μM, 37°C, 48 h; mean±SD of 3 independent experiments
property: IC50

Ask: Fill in IC50 for record COc1cc(/C=C/C(O)=C/C(=O)/C=C/c2ccc(O)cc2)ccc1O [Demethoxycurcumin, demethoxycurcumin]
Result: < 30 µM

Ask: Quick one: give measured IC50 for COc1ccc2cc3[n+](cc2c1OC)CCc1cc2c(cc1-3)OCO2 [Berberine, berberine]
Result: > 260 µM

Ask: Consider the compound O=c1cc(-c2ccc(O)c(O)c2)oc2cc(O)cc(O)c12 [Luteolin, luteolin] and give its recorded IC50.
Result: < 30 µM

Ask: // fetch IC50 given entry C[C@@H]1O[C@@H](Oc2c(-c3ccc(O)cc3)oc3cc(O)cc(O)c3c2=O)[C@H](O)[C@H](O)[C@H]1O [Afzelin, afzelin]
Result: > 230 µM

* * *

System: A. polyphaga (ATCC-30461) trophozoites
assay: In vitro anti-Acanthamoeba activity, A. polyphaga trophozoite viability
Type: cell-based
condition: Acanthamoeba polyphaga, ATCC30461, 48 h, read-out: A. polyphaga (IC50 ±SD, μM), trophozoites, 0–400 μM, 25°C, 48 h; mean±SD of 3 independent experiments
property: IC50

Oc1ccc(/C=C/c2cc(O)cc(O)c2)cc1 :: < 50 µM
C[C@@H]1O[C@@H](Oc2c(-c3ccc(O)cc3)oc3cc(O)cc(O)c3c2=O)[C@H](O)[C@H](O)[C@H]1O :: > 230 µM

Ask: Find the measured IC50 of COc1ccc2cc3[n+](cc2c1OC)CCc1cc2c(cc1-3)OCO2 and report it.
Result: > 260 µM

Ask: Identify measured IC50 associated with O=c1cc(-c2ccc(O)c(O)c2)oc2cc(O)cc(O)c12
Result: 40.2 µM

* * *

Reported SI, sensitivity index (CC50 C6 glial cells / IC50 A. castellanii) values for the following molecules.
Tested on: A. castellanii (ATCC-30868) trophozoites
assay: In vitro anti-Acanthamoeba activity, A. castellanii trophozoite viability
Format: cell-based
condition: ratio CC50 C6 glial cells / IC50 A. castellanii

See these solved cases before continuing.
CCCCCCCCCCCCCCCCOP(=O)([O-])OCC[N+](C)(C)C [Miltefosine, miltefosine, reference compound] :: >1.15
COc1cc(/C=C/C(O)=C/C(=O)/C=C/c2ccc(O)cc2)ccc1O :: >8.19

Proceed to the following item.
Ask: For the molecule O=C(/C=C/c1ccc(O)c(O)c1)O[C@H](Cc1ccc(O)c(O)c1)C(=O)O , give its measured SI, sensitivity index (CC50 C6 glial cells / IC50 A. castellanii) value.
Result: >8.77

# credit: paper PMC10693969
